# target.desc: SARS-CoV-2 wild type spike protein (on reporter virus particles) (SARS-CoV-2, UniProt P0DTC2 14-1273)
# protocol.description: cell-based or functional assay
Listed here are binders together with their documented SARS2 IC50.
experimental.endpoint: SARS2 IC50 (nM)

# binder, experimental.endpoint, measured.result
records = [
    ("A-9 (antibody, V domains shown) VH: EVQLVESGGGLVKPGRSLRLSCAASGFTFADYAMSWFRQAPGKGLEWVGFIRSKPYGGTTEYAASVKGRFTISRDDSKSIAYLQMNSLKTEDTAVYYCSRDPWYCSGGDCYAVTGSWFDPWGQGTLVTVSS VL: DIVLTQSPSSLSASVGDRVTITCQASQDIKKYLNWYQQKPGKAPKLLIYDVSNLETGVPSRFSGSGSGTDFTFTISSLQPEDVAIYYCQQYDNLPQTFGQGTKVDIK", "SARS2 IC50", 0.03),
    ("A-18 (antibody, V domains shown) VH: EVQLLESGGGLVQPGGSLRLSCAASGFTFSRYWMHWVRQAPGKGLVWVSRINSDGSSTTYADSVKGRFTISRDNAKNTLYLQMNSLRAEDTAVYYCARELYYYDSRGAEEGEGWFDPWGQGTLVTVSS VL: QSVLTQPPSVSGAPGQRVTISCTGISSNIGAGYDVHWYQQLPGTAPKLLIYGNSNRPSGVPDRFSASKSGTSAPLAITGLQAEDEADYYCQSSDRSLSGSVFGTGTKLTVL", "SARS2 IC50", 5.9),
    ("A-6 (antibody, V domains shown) VH: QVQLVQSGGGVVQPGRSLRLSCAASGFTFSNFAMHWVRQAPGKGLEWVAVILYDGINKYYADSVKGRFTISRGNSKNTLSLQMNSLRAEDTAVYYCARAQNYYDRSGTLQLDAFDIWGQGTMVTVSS VL: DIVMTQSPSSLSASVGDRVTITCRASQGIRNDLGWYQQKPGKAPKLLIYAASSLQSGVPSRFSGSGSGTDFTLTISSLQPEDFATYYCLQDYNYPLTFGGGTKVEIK", "SARS2 IC50", 0.023),
    ("A-16 (antibody, V domains shown) VH: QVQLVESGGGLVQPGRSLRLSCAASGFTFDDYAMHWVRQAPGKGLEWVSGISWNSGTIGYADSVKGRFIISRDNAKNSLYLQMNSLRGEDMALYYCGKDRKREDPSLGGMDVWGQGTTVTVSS VL: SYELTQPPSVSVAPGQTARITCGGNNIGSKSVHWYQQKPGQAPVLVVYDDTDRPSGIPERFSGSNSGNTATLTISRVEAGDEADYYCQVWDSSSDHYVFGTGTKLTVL", "SARS2 IC50", 0.61),
]
